- target_or_test_system: DLG1_3, Q12959
- Sequence (Q12959 457-571): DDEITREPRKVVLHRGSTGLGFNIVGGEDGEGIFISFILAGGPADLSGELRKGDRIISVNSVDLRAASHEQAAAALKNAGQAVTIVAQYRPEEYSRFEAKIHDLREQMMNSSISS
- experimental_protocol: holdup assay
- Parameters: key: below the threshold = too weak to quantify, mostly under pKd 3.1 to 4
- condition_label: plain residues with an end cap or a label only (N-terminal biotin on a linker: ado-ado)
recorded_endpoint: pKd

Consider the reported pKd for these binders:
binder	recorded_endpoint	result
ELKAEDEVQI [DCHS2, Q6V1P9]	pKd	below the threshold
PSDSVGKDVF [EGLN1, Q9GZT9]	pKd	below the threshold
IKLETKKTKL [SLC15A2, Q16348]	pKd	3.97
TKEIPNCTSV [SORCS3, Q9UPU3]	pKd	4.14
TNSKQGETTV [FZD1, Q9UP38]	pKd	4.13
KKTPVSRSHL [SLC22A3, O75751]	pKd	below the threshold
DFKHTKSFII [JAM2, P57087]	pKd	below the threshold
GQNMTVSVVI [PRLHR, P49683]	pKd	below the threshold

// switching to the query binder
Record NSTHNLKDYV [CLDN20, P56880] . Reported pKd: below the threshold
